# assayed target: T1, recombinant human CD3 epsilon/delta heterodimer (human, UniProt P07766 23-126; P04234 22-105)
# T1 construct: Recombinant protein in solution (200-50 nM) in the Octet assay; also called hCD3 E/D; human CD3E/D
# T1 sequence (P07766 23-126, stated change not applied, chain 1 of 2): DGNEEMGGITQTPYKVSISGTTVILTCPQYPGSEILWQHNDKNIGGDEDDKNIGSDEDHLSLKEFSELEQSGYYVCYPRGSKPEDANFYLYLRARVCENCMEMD
# T1 sequence (P04234 22-105, stated change not applied, chain 2 of 2): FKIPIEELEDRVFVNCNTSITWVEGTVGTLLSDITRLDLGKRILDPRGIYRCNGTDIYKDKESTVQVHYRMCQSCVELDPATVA
# measurement protocol: Octet BLI, mAb on FAB2G sensor, hCD3 E/D 200-50 nM; R^2 1.00
Label condition met when kon is at or above 80000 M⁻¹ s⁻¹; anything below gets condition not met.

[
  {
    "binder": "ABL-CD3-41 (antibody, V domains shown, Chimeric hybridoma mAb: human V, CH1, upper hinge; mouse middle hinge, CH2, CH3) VH: EVQLVESGGGLVKPGGSLRLSCAASGFTFSSYSMNWVRQAPGKGLEWVSSVNSRGSYIYYADSVKGRFTISRDNAKDSLYLQMNSLRADDTAVYYCARDRRELLLDYWGQGTLVTVSS VL: SYELTQPPSVSVSPGQTARITCSGDALPKKYAYWYQQKSGQAPVLVIYEDSKRPSGIPERFSGSSSGTMATLTISGAQVEDEADYYCYSTDSSGNHCWVFGGGTKLTVL",
    "class name": "condition met"
  },
  {
    "binder": "ABL-CD3-36 (antibody, V domains shown, Chimeric hybridoma mAb: human V, CH1, upper hinge; mouse middle hinge, CH2, CH3) VH: EVQLVESGGGLVQRGGSLRLSCAASGFTFSNYWMSWVRQAPGKGLEWVANIKEDGSEKYCVDSVKGRFTISRDNAKHSLYLQMNSLRAEDTAVYYCARERRTGYFDYWGQGTLVTVSS VL: DIQMTQSPSTLSASVGDRVTITCRASQSISSWLAWFQQKTGKAPKLLIYKASSLESGVPSRFSGSGSGTEFTLTISSLQPDDFATYYCQQYISYSWTFGQGTKVEIK",
    "class name": "condition not met"
  },
  {
    "binder": "ABL-CD3-6 (antibody, V domains shown, Chimeric hybridoma mAb: human V, CH1, upper hinge; mouse middle hinge, CH2, CH3) VH: EVQLVDSGGGLVKPGGSLRLSCAASGFTFSSYSMNWVRQAPGKGLEWVSSISSRGSYRNYADSVKGRFTISRDNAKNSLYLQMNSLRAEDTAVYYCARDRRELLLDCWGQGTLVTVSS VL: SYELTQPPSVSVSPGQTARITCSGDALPKKYAYWYQQKSGQAPVLVIYEDSKRPSGIPERFSGSSSGTMATLTISGAQVEDEADYYCYSTDSSGNHSWVFGGGTKLTVL",
    "class name": "condition met"
  },
  {
    "binder": "ABL-CD3-59 (antibody, V domains shown, Chimeric hybridoma mAb: human V, CH1, upper hinge; mouse middle hinge, CH2, CH3) VH: EVQLVESGGGLVKPGGSLRLSCTASGFTLSSYSMNWVRQAPGKGLEWVSSLSRSSNYIYYAVSVKGRFTISRDNAKNSLYLQMNSLRAEDTAVYYCARERWELLYFDYWGQGTLVTVSS VL: NFMLTQPHSVSESPGKTVTISCTRSSGSIASNYVQWYQQRPGSSPTTVIYEDNQRPSGVPDRFSGSIDSSSNSASLTISGLQTEDEADYYCQSYDNSIRVFGGGTKLTVL",
    "class name": "condition met"
  },
  {
    "binder": "ABL-CD3-58 (antibody, V domains shown, Chimeric hybridoma mAb: human V, CH1, upper hinge; mouse middle hinge, CH2, CH3) VH: EVQLVESGGGLVKPGGSLRLSCVVSGFTFSNYNMNWVRQAPGKGLEWVSSSSRSSYIYYADSVKGRFTISRDNAKNSLYLQMNSLRAEDTAIYYCAREKWELLFFDYWGQGTLVTVSS VL: NFMLTQPHSVSESPGKTVTISCTRSSGSIASNFVQWYQQRPGSSPTTVIYEDNQRPSGVPDRFSGSIDSSSNSASLTISGLKTEDEADYYCQSFDSSNRVFGGGTKLTVL",
    "class name": "condition not met"
  },
  {
    "binder": "ABL-CD3-1 (antibody, V domains shown, Chimeric hybridoma mAb: human V, CH1, upper hinge; mouse middle hinge, CH2, CH3) VH: EVQLVESGGGLVKPGGSLRLSCAASGFTLSSYSMNWVRQAPGKGLEWVSSISRSGSYIYYADSVKGRFTISRDNAKNSLYLQMNSLRAEDTAVYYCAREKWELLYFDYWGQGTLVTVSS VL: NFMLTQPHSVSESPGKTVTISCTRSSGSIASNYVQWYQQRPGSSPTTVIYEDNQRPSGVPDRFSGSIDSSSNSASLTISGLKTEDEADYYCQSYDSSNRVFGGGTKLTVL",
    "class name": "condition met"
  }
]
